These entries and their values trace back to the supplement of paper PMC10307832.

System: NCI-H1666
Assay: relative viability (nuclei count vs DMSO), 5 days (fraction); higher = more cells survive
Details: first compound 0.04 µM
Metric: relative viability

| Compound | Result number |
| --- | --- |
| Clc1ccc(Nc2nnc(Cc3ccncc3)c3ccccc23)cc1 [Vatalanib] + O=C(CCCCCCC(=O)Nc1ccccc1)NO [Vorinostat] (partner 1 µM) | 0.997 |
| C[C@@H]1CN(CC(=O)Nc2ccc3c(c2)Cc2cccc(-c4cc(=O)cc(N5CCOCC5)o4)c2S3)C[C@H](C)O1 + NC(=O)Nc1cc(-c2cccc(F)c2)sc1C(=O)N[C@H]1CCCNC1 [AZD7762] (partner 0.2 µM) | 0.891 |
| C[C@@H]1CN(CC(=O)Nc2ccc3c(c2)Cc2cccc(-c4cc(=O)cc(N5CCOCC5)o4)c2S3)C[C@H](C)O1 + COc1cccc2cc(-c3nc([C@H]4CC[C@H](C(=O)O)CC4)n4ncnc(N)c34)[nH]c12 [OSI-027] (partner 0.5 µM) | 0.932 |
| COc1cc(N2CCC(C(N)=O)CC2)ccc1Nc1nc(N)c(Cl)c(Nc2ccccc2S(=O)(=O)C(C)C)n1 [HG-5-88-01] + C[C@]1(O)C[C@@H](c2nc(-c3ccc4ccc(-c5ccccc5)nc4c3)c3c(N)nccn32)C1 [Linsitinib] (partner 1 µM) | 0.958 |
| COc1cc(N2CCC(C(N)=O)CC2)ccc1Nc1nc(N)c(Cl)c(Nc2ccccc2S(=O)(=O)C(C)C)n1 [HG-5-88-01] + CC(C)C[C@H](NC(=O)[C@H](Cc1ccccc1)NC(=O)c1cnccn1)B(O)O [Bortezomib] (partner 0.002 µM) | 0.944 |
| C[C@@H]1CN(CC(=O)Nc2ccc3c(c2)Cc2cccc(-c4cc(=O)cc(N5CCOCC5)o4)c2S3)C[C@H](C)O1 + O=C(CCCCCCC(=O)Nc1ccccc1)NO [Vorinostat] (partner 1 µM) | 1.01 |
| C[C@@H]1CN(CC(=O)Nc2ccc3c(c2)Cc2cccc(-c4cc(=O)cc(N5CCOCC5)o4)c2S3)C[C@H](C)O1 + Nc1nc2[nH]cc(CCc3ccc(C(=O)N[C@@H](CCC(=O)O)C(=O)O)cc3)c2c(=O)[nH]1 [Pemetrexed] (partner 0.2 µM) | 0.905 |

----------
System: NCI-H2228
Experiment: relative viability (nuclei count vs DMSO), 5 days (fraction); higher = more cells survive
Settings: first compound 1.265 µM
Quick reference for relative viability among some compounds

| Compound | relative viability |
| --- | --- |
| Clc1ccc(Nc2nnc(Cc3ccncc3)c3ccccc23)cc1 [Vatalanib] + CS(=O)(=O)N1CCN(Cc2cc3nc(-c4cccc5[nH]ncc45)nc(N4CCOCC4)c3s2)CC1 [Pictilisib] (partner 1 µM) | 0.379 |
| Clc1ccc(Nc2nnc(Cc3ccncc3)c3ccccc23)cc1 [Vatalanib] + CC1(C)CCC(c2ccc(Cl)cc2)=C(CN2CCN(c3ccc(C(=O)NS(=O)(=O)c4ccc(N[C@H](CCN5CCOCC5)CSc5ccccc5)c(S(=O)(=O)C(F)(F)F)c4)cc3)CC2)C1 [Navitoclax] (partner 0.5 µM) | 0.755 |
| Clc1ccc(Nc2nnc(Cc3ccncc3)c3ccccc23)cc1 [Vatalanib] + COc1cccc2cc(-c3nc([C@H]4CC[C@H](C(=O)O)CC4)n4ncnc(N)c34)[nH]c12 [OSI-027] (partner 0.5 µM) | 0.589 |
| COc1cc(N2CCC(C(N)=O)CC2)ccc1Nc1nc(N)c(Cl)c(Nc2ccccc2S(=O)(=O)C(C)C)n1 [HG-5-88-01] + CC1(C)CCC(c2ccc(Cl)cc2)=C(CN2CCN(c3ccc(C(=O)NS(=O)(=O)c4ccc(N[C@H](CCN5CCOCC5)CSc5ccccc5)c(S(=O)(=O)C(F)(F)F)c4)cc3)CC2)C1 [Navitoclax] (partner 0.5 µM) | 0.417 |
| COc1cc(N2CCC(C(N)=O)CC2)ccc1Nc1nc(N)c(Cl)c(Nc2ccccc2S(=O)(=O)C(C)C)n1 [HG-5-88-01] + CC(=O)c1c(C)c2cnc(Nc3ccc(N4CCNCC4)cn3)nc2n(C2CCCC2)c1=O [Palbociclib] (partner 0.5 µM) | 0.247 |
| COc1cc(N2CCC(C(N)=O)CC2)ccc1Nc1nc(N)c(Cl)c(Nc2ccccc2S(=O)(=O)C(C)C)n1 [HG-5-88-01] + CC(=O)Nc1cccc(-n2c(=O)n(C3CC3)c(=O)c3c(Nc4ccc(I)cc4F)n(C)c(=O)c(C)c32)c1 [Trametinib] (partner 0.02 µM) | 0.174 |
| Clc1ccc(Nc2nnc(Cc3ccncc3)c3ccccc23)cc1 [Vatalanib] + N=C(N)NC(=N)NCCc1ccccc1 [Phenformin] (partner 250 µM) | 0.366 |
| Clc1ccc(Nc2nnc(Cc3ccncc3)c3ccccc23)cc1 [Vatalanib] + O=C(c1cc(Cc2n[nH]c(=O)c3ccccc23)ccc1F)N1CCN(C(=O)C2CC2)CC1 [Olaparib] (partner 8 µM) | 0.654 |
| Clc1ccc(Nc2nnc(Cc3ccncc3)c3ccccc23)cc1 [Vatalanib] + O=C(CCCCCCC(=O)Nc1ccccc1)NO [Vorinostat] (partner 1 µM) | 0.723 |
| Clc1ccc(Nc2nnc(Cc3ccncc3)c3ccccc23)cc1 [Vatalanib] + Nc1nc2[nH]cc(CCc3ccc(C(=O)N[C@@H](CCC(=O)O)C(=O)O)cc3)c2c(=O)[nH]1 [Pemetrexed] (partner 0.2 µM) | 0.376 |

----------
System: NCI-H2023
Experiment: relative viability (nuclei count vs DMSO), 5 days (fraction); higher = more cells survive
Conditions: first compound 0.4 µM
The following compounds are listed with their measured relative viability values.

| Compound | relative viability |
| --- | --- |
| C[C@@H]1CN(CC(=O)Nc2ccc3c(c2)Cc2cccc(-c4cc(=O)cc(N5CCOCC5)o4)c2S3)C[C@H](C)O1 + CC(C)C[C@H](NC(=O)[C@H](Cc1ccccc1)NC(=O)c1cnccn1)B(O)O [Bortezomib] (partner 0.002 µM) | 0.783 |
| Clc1ccc(Nc2nnc(Cc3ccncc3)c3ccccc23)cc1 [Vatalanib] + N=C(N)NC(=N)NCCc1ccccc1 [Phenformin] (partner 250 µM) | 0.477 |
| COc1cc(N2CCC(C(N)=O)CC2)ccc1Nc1nc(N)c(Cl)c(Nc2ccccc2S(=O)(=O)C(C)C)n1 [HG-5-88-01] + C[C@@H](Oc1cc(-c2cnn(C3CCNCC3)c2)cnc1N)c1c(Cl)ccc(F)c1Cl [Crizotinib] (partner 1 µM) | 0.543 |
| COc1cc(N2CCC(C(N)=O)CC2)ccc1Nc1nc(N)c(Cl)c(Nc2ccccc2S(=O)(=O)C(C)C)n1 [HG-5-88-01] + CS(=O)(=O)CCNCc1ccc(-c2ccc3ncnc(Nc4ccc(OCc5cccc(F)c5)c(Cl)c4)c3c2)o1 [Lapatinib] (partner 2 µM) | 0.573 |
| COc1cc(N2CCC(C(N)=O)CC2)ccc1Nc1nc(N)c(Cl)c(Nc2ccccc2S(=O)(=O)C(C)C)n1 [HG-5-88-01] + COc1cc2c(Oc3ccc(NC(=O)C4(C(=O)Nc5ccc(F)cc5)CC4)cc3F)ccnc2cc1OCCCN1CCOCC1 [Foretinib] (partner 0.25 µM) | 0.628 |
| Clc1ccc(Nc2nnc(Cc3ccncc3)c3ccccc23)cc1 [Vatalanib] + C[C@]1(O)C[C@@H](c2nc(-c3ccc4ccc(-c5ccccc5)nc4c3)c3c(N)nccn32)C1 [Linsitinib] (partner 1 µM) | 0.815 |
| COc1cc(N2CCC(C(N)=O)CC2)ccc1Nc1nc(N)c(Cl)c(Nc2ccccc2S(=O)(=O)C(C)C)n1 [HG-5-88-01] + C[C@]1(O)C[C@@H](c2nc(-c3ccc4ccc(-c5ccccc5)nc4c3)c3c(N)nccn32)C1 [Linsitinib] (partner 1 µM) | 0.619 |
| Clc1ccc(Nc2nnc(Cc3ccncc3)c3ccccc23)cc1 [Vatalanib] + CC(=O)Nc1cccc(-n2c(=O)n(C3CC3)c(=O)c3c(Nc4ccc(I)cc4F)n(C)c(=O)c(C)c32)c1 [Trametinib] (partner 0.02 µM) | 0.477 |
| Clc1ccc(Nc2nnc(Cc3ccncc3)c3ccccc23)cc1 [Vatalanib] + O=C(c1cc(Cc2n[nH]c(=O)c3ccccc23)ccc1F)N1CCN(C(=O)C2CC2)CC1 [Olaparib] (partner 8 µM) | 0.447 |

----------
Catalogue of relative viability values
Test system: NCI-H1703
Experiment: relative viability (nuclei count vs DMSO), 5 days (fraction); higher = more cells survive
Settings: first compound 0.04 µM

| Compound | relative viability |
| --- | --- |
| COc1cc(N2CCC(C(N)=O)CC2)ccc1Nc1nc(N)c(Cl)c(Nc2ccccc2S(=O)(=O)C(C)C)n1 [HG-5-88-01] + CC1(C)CCC(c2ccc(Cl)cc2)=C(CN2CCN(c3ccc(C(=O)NS(=O)(=O)c4ccc(N[C@H](CCN5CCOCC5)CSc5ccccc5)c(S(=O)(=O)C(F)(F)F)c4)cc3)CC2)C1 [Navitoclax] (partner 0.5 µM) | 0.719 |
| Clc1ccc(Nc2nnc(Cc3ccncc3)c3ccccc23)cc1 [Vatalanib] + CS(=O)(=O)N1CCN(Cc2cc3nc(-c4cccc5[nH]ncc45)nc(N4CCOCC4)c3s2)CC1 [Pictilisib] (partner 1 µM) | 0.229 |
